Cited source for all entries: patent US20170022281A1

Target: T1, human PRLR (Biacore antigen) (human, UniProt P16471 25-234, limits assumed)
T1 construct: The construct injected over captured antibody is not described (a soluble form is likely); also called huPRLR
T1 sequence: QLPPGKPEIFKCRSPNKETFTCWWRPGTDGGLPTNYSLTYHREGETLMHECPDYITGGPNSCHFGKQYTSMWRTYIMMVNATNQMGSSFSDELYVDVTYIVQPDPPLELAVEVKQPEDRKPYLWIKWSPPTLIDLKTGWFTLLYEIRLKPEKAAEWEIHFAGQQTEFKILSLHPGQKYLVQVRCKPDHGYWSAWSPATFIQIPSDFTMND
Test: SPR Biacore
property: Kd (pM)
Kindly answer with a numeric value in pM, unit omitted.

Reported Kd for Ab10 (antibody, V domains shown, murine monoclonal, isotype G2a; also called murine Ab10) VH: EVQLHQSGPELVKPGASVKISCKASGYTFTDYNMHWMKQSHGKSLEWIGYFYPYNGGTGYNQEFKNKATLTVDISSSTAYMELRRLTSEDSAVYYCARGGWGIYYAMDYWGQGTSVTVSS VL: DIQMTQSPASLSASVGETVTITCRASENIYSYLTWYQQKQGKSPQLLVYNAKTLAEGVPSRFSGSGSGTQFSLKINSLQPEDFGSYHCQHHSVTPLTFGAGTKLELK : what is it?
1410

What do we get for Ab49 (antibody, human IgG1, kappa, V domains shown, humanized from Ab8; G1; also called Ab3 HC.1a and Ab3 LC.1b) VH: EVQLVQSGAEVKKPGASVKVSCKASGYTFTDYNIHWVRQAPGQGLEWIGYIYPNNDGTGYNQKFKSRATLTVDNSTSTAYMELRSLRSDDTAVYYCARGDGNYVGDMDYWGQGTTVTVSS VL: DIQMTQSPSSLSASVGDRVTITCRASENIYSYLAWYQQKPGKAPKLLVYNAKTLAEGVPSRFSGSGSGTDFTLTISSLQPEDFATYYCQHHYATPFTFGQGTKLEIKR ?
214
